Assay: protein stability index of a GFP-peptide fusion (yeast GPS) (PSI 1-4); higher = more stable; sorted into four equal gates, so the index is relative within each strain
Settings: san1∆
Classify by protein stability index. Ranges: class A = under 2, class B = from 2 up to 3, class C = 3 and over

{"CHAIN": "LLLKLASPHASVRTAVF [ECM29]", "LABEL": "class A"}
{"CHAIN": "IPIGHVHVIHFQHADNS [AAR2]", "LABEL": "class B"}
{"CHAIN": "ERIVVSYEYYNIKHKHT [SMC2]", "LABEL": "class A"}
{"CHAIN": "SYWQKSYFKNSVIVKFH [LIN1]", "LABEL": "class B"}
{"CHAIN": "SKELRAQYGIKALPIRR [RPL26A]", "LABEL": "class C"}
{"CHAIN": "QTRAKLLDNEIRIFRSE [RPT5]", "LABEL": "class C"}

Problem: Please report the category associated with CELQVETYGSMEMSEKI [RPN5] , nothing else.
Result: class B

Problem: Same read-out for KRAASVARHIYMRKQVG [RPS19A] ?
Result: class A

---

Assay: protein stability index of a GFP-peptide fusion (yeast GPS) (PSI 1-4); higher = more stable; sorted into four equal gates, so the index is relative within each strain
Settings: san1∆
VALUE_KIND: protein stability index

Consider the reported protein stability index for these sequences:
{"CHAIN": "KVAKRTKIKPFIKVVNY [RPL27A]", "protein stability index": 2.86}
{"CHAIN": "TLLSPKDNGMLIIDGQI [RPO21]", "protein stability index": 2.81}
{"CHAIN": "EPPAGVALPPGSNYNPY [CYT1]", "protein stability index": 2.83}
{"CHAIN": "GTYIQERNPSQRPQRRY [RPS10B]", "protein stability index": 3.09}
{"CHAIN": "EAASITRKSLNNAVRFS [ECM29]", "protein stability index": 2.86}

Problem: What value of protein stability index has been reported for the following sequence? ESLKKSPIFEVLSDDAK [ARP9]
Result: 3.06

Problem: Same read-out for EYDTPALFFDPSLNPIP [PRP8] ?
Result: 2.65

Problem: Same read-out for MVPKRSTIITKAINQEL [YCS4] ?
Result: 1.58

---

Assay: protein stability index of a GFP-peptide fusion (yeast GPS) (PSI 1-4); higher = more stable; sorted into four equal gates, so the index is relative within each strain
Conditions: san1∆
Classify by protein stability index. Ranges: lo (below 2), mid (2 to below 3), hi (3 or more)

Answered examples (5):
{"CHAIN": "SYSPTSPSYSPTSPAYS [RPO21]", "LABEL": "mid"}
{"CHAIN": "KMFIQRILAMCVKNHGQ [YCS4]", "LABEL": "mid"}
{"CHAIN": "QEASKQYTKDEQFYTKD [RPN2]", "LABEL": "hi"}
{"CHAIN": "FLVLYDVKTAEEASQLI [NUT1]", "LABEL": "mid"}
{"CHAIN": "RHMALLVDVMTTQGGLT [RPO21]", "LABEL": "mid"}

Problem: Please report the category associated with SLAVRSLQDRSSLVRRN [YCS4] , nothing else.
Result: mid

Problem: Same read-out for DYYQSIYAKYGAKGSTL [FAS2] ?
Result: mid

Problem: Same read-out for AKTFIDLESSSPELKAD [RPS7B] ?
Result: hi

Problem: Same read-out for GRLNTLVISLAATNETF [IRR1] ?
Result: lo

Problem: Same read-out for TQARVITGNKIMRILKS [RPS13] ?
Result: lo
